# System: SF-295 CNS
# Assay Method Text: NCI tumour cell line growth inhibition, 48 h
Outcome Measure: TGI

// solved cases for TGI follow
Compound	TGI
O=C(Cc1csc2nc(-c3ccc(Br)cc3)cn12)N/N=C/c1ccc(Cl)cc1Cl	> 100 µM
C[N+]1([O-])[C@H]2CC(OC(=O)[C@H](CO)c3ccccc3)C[C@H]1[C@H]1O[C@H]12 (stereo not given in full)	> 100 µM
COc1ccc(OC(C)C(=O)O)c2c1CCCC2=O (stereo not given)	> 100 µM
Cc1ccc2nc3c(n2c1)C(=O)C(=O)c1ccccc1-3	0.937 µM
O=C1NC(=O)[C@@H](c2c[nH]c3ccccc23)[C@@H]1c1c[nH]c2ccccc12	> 25 µM

Lookup result for CC(=O)c1[nH]c(Nc2ccc(C)cc2)c(C(=S)Nc2ccccc2)c1N ; measured TGI: 39.7 µM

Lookup result for COc1cc(/C=C/C(=N\NC(=S)NN)c2sc(NNC(C)=O)nc2C)ccc1O ; measured TGI: > 100 µM

Lookup result for COc1ccc2c(c1)[nH]c(=O)c1c3cc(OC)c(OC)cc3cn21 ; measured TGI: 0.409 µM

Lookup result for CC(C)C[CH2][Ge]([CH2]CC(C)C)([CH2]CC(C)C)[CH2]CC(C)C ; measured TGI: > 100 µM

Lookup result for COc1ccc([C@H]2c3cc4c(cc3OC(O)(CO)[C@H]2C(=O)O)OCO4)c(OC)c1 (stereo not given in full) (tested in a mixture with another compound) ; measured TGI: > 100 µM
